Reported IC50 values for a set of compounds
molecular target: rat brain cortical membranes ([35S]-TBPS binding); assay: Steroid inhibition of [35S]-TBPS binding (radioligand displacement); conditions: 3 nM [35S]-TBPS, in the presence of 5 μM GABA
metric name: IC50

compound: COc1ccccc1C(=O)[C@H]1CC[C@H]2[C@@H]3CC[C@@H]4C[C@](C)(O)CC[C@@H]4[C@H]3CC[C@]12C [Compound 50]
metric name: IC50
test value: > 100 nM
--
compound: Cc1cccc(C(=O)[C@H]2CC[C@H]3[C@@H]4CC[C@H]5C[C@](C)(O)CC[C@]5(C)[C@H]4CC[C@]23C)c1 [Compound 82]
metric name: IC50
test value: > 100 nM
--
compound: CCc1ccc(C(=O)[C@H]2CC[C@H]3[C@@H]4CC[C@@H]5C[C@](C)(O)CC[C@@H]5[C@H]4CC[C@]23C)cc1 [Compound 42]
metric name: IC50
test value: < 20 nM
--
compound: C[C@@]1(O)CC[C@@]2(C)[C@H](CC[C@@H]3[C@@H]2CC[C@]2(C)[C@@H](C(=O)c4ccc(Cl)cc4)CC[C@@H]32)C1 [Compound 51]
metric name: IC50
test value: 50 to 100 nM
--
compound: C[C@@]1(O)CC[C@H]2[C@@H](CC[C@@H]3[C@@H]2CC[C@]2(C)[C@@H](C(=O)c4ccc(-c5ccccc5)cc4)CC[C@@H]32)C1 [Compound 58]
metric name: IC50
test value: 50 to 100 nM
--
compound: COc1ccc2cc(C(=O)[C@H]3CC[C@H]4[C@@H]5CC[C@@H]6C[C@](C)(O)CC[C@]6(C)[C@H]5CC[C@]34C)ccc2c1 [Compound 85]
metric name: IC50
test value: > 100 nM
--
compound: Cn1cc(C(=O)[C@H]2CC[C@H]3[C@@H]4CC[C@@H]5C[C@](C)(O)CC[C@@H]5[C@H]4CC[C@]23C)nn1 [Compound 100]
metric name: IC50
test value: > 100 nM
--
compound: Cn1cc(C(=O)[C@H]2CC[C@H]3[C@@H]4CC[C@H]5C[C@](C)(O)CC[C@]5(C)[C@H]4CC[C@]23C)cn1 [Compound 124]
metric name: IC50
test value: 50 to 100 nM
--
compound: C[C@@]1(O)CC[C@H]2[C@H](CC[C@@H]3[C@@H]2CC[C@]2(C)[C@@H](C(=O)c4cccs4)CC[C@@H]32)C1 [Compound 4]
metric name: IC50
test value: 20 to 50 nM
--
compound: C[C@@]1(O)CC[C@H]2[C@H](CC[C@@H]3[C@@H]2CC[C@]2(C)[C@@H](C(=O)c4ccccn4)CC[C@@H]32)C1 [Compound 60]
metric name: IC50
test value: > 100 nM
--
compound: Cc1ccc(C(=O)[C@H]2CC[C@H]3[C@@H]4CC[C@@H]5C[C@](C)(O)CC[C@@H]5[C@H]4CC[C@]23C)cc1F [Compound 41]
metric name: IC50
test value: 20 to 50 nM
--
compound: C[C@@]1(O)CC[C@@]2(C)[C@@H](CC[C@@H]3[C@@H]2CC[C@]2(C)[C@@H](C(=O)c4ccc(F)cc4)CC[C@@H]32)C1 [Compound 79]
metric name: IC50
test value: > 100 nM
--
compound: C[C@@]1(O)CC[C@H]2[C@@H](CC[C@@H]3[C@@H]2CC[C@]2(C)[C@@H](C(=O)c4ccc5ccccc5c4)CC[C@@H]32)C1 [Compound 59]
metric name: IC50
test value: 50 to 100 nM
--
compound: CN(C)c1ccc(C(=O)[C@H]2CC[C@H]3[C@@H]4CC[C@@H]5C[C@](C)(O)CC[C@@H]5[C@H]4CC[C@]23C)cc1 [Compound 32]
metric name: IC50
test value: 20 to 50 nM
--
compound: Cn1c(C(=O)[C@H]2CC[C@H]3[C@@H]4CC[C@@H]5C[C@](C)(O)CC[C@@H]5[C@H]4CC[C@]23C)nc2ccccc21 [Compound 6]
metric name: IC50
test value: > 100 nM
--
compound: C[C@@]1(O)CC[C@@]2(C)[C@H](CC[C@@H]3[C@@H]2CC[C@]2(C)[C@@H](C(=O)c4ccccn4)CC[C@@H]32)C1 [Compound 62]
metric name: IC50
test value: > 100 nM
--
compound: C[C@@]1(O)CC[C@@]2(C)[C@H](CC[C@@H]3[C@@H]2CC[C@]2(C)[C@@H](C(=O)c4ccc(-c5ccccc5)cc4)CC[C@@H]32)C1 [Compound 22]
metric name: IC50
test value: 50 to 100 nM
--
compound: C[C@@]1(O)CC[C@H]2[C@H](CC[C@@H]3[C@@H]2CC[C@]2(C)[C@@H](C(=O)c4nc5ccccc5s4)CC[C@@H]32)C1 [Compound 8]
metric name: IC50
test value: > 100 nM
--
compound: C[C@@]1(O)CC[C@@]2(C)[C@@H](CC[C@@H]3[C@@H]2CC[C@]2(C)[C@@H](C(=O)c4cccc(Cl)c4)CC[C@@H]32)C1 [Compound 101]
metric name: IC50
test value: > 100 nM
--
compound: C[C@@]1(O)CC[C@H]2[C@H](CC[C@@H]3[C@@H]2CC[C@]2(C)[C@@H](C(=O)c4ccsc4)CC[C@@H]32)C1 [Compound 10]
metric name: IC50
test value: < 20 nM
--
compound: C[C@@]1(O)CC[C@H]2[C@H](CC[C@@H]3[C@@H]2CC[C@]2(C)[C@@H](C(=O)c4coc5ccccc45)CC[C@@H]32)C1 [Compound 12]
metric name: IC50
test value: 20 to 50 nM
--
compound: C[C@@]1(O)CC[C@@]2(C)[C@@H](CC[C@@H]3[C@@H]2CC[C@]2(C)[C@@H](C(=O)c4ccccc4F)CC[C@@H]32)C1 [Compound 80]
metric name: IC50
test value: > 100 nM
--
compound: C[C@@]1(O)CC[C@H]2[C@H](CC[C@@H]3[C@@H]2CC[C@]2(C)[C@@H](C(=O)c4cnc[nH]4)CC[C@@H]32)C1 [Compound 88]
metric name: IC50
test value: > 100 nM
--
compound: Cn1c(C(=O)[C@H]2CC[C@H]3[C@@H]4CC[C@@H]5C[C@](C)(O)CC[C@@H]5[C@H]4CC[C@]23C)cc2ccccc21 [Compound 7]
metric name: IC50
test value: 50 to 100 nM
